Experiment: chemical genetic growth profiling, strain panel (AID 1159580);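 also: tested at 20 µM; growth read once vehicle control cultures reached saturation at 30 °C; 1 = growth at the plate median or of vehicle wells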
Conditions: S. cerevisiae deletion strains, growth OD, locus YOR231W, strain MKK1, stronger effect = lower value
Screen size: about 5,500 compounds; about 2,000 (36%) were called active. Inconclusive results (about 18%) are left out. The list shows a part of the results.
Each record is given y if its reported normalized growth is strictly below 1. Records at or above 1 are given n.

Observe how each entry below is paired with its result.
Oc1c(Br)cc(Br)cc1C=Nc1ccccn1 ... y
COc1ccc2c(c1)CCC1C2CC[C@@]2(C)C1CC[C@@H]2O (stereo partly specified) ... y
Oc1c(Cl)cc(Cl)cc1C=Nc1ccc(Sc2ccccc2)nc1Sc1ccccc1 ... y

In the record for C[C@H]1O[C@H](OC2[C@@H](O)[C@@H](O)C(O)[C@H](O)[C@H]2O)[C@@H](N)C[C@@H]1N=C(N)C(=O)O (stereo partly specified) , is normalized growth less than 1?
y

In the record for CC(C)c1c(O)c(-c2cc3c(c(C(C)C)c2O)CCC2C(C)(C)CCC[C@]32C)cc2c1CCC1C(C)(C)CCC[C@]21C (stereo partly specified) , is normalized growth less than 1?
y

* * *

Test: chemical genetic growth profiling, strain panel (AID 1159580)
Conditions: S. cerevisiae deletion strains, growth OD, locus YGL240W, strain doc1, stronger effect = lower value
The campaign covered roughly 5,500 compounds. About 2,000 (36%) were called active. Inconclusive results (about 18%) are left out. Some of the results follow.
reportedEndpoint: normalized growth
Provide a numeric answer; units are not to be included.

// below: answered compounds
O=c1c(O)c(-c2ccc(O)c(O)c2)oc2cc(O)cc(O)c12 ... 0.997
CCC(c1ccc(O)cc1)C(CC)c1ccc(O)cc1 (stereo not given) ... 0.863
CC(C)c1c(O)c(-c2cc3c(c(C(C)C)c2O)CCC2C(C)(C)CCC[C@]32C)cc2c1CCC1C(C)(C)CCC[C@]21C (stereo not given in full) ... 0.988
O=c1cc(-c2ccc(O)cc2)oc2cc(O[C@@H]3O[C@H](CO)[C@@H](O)[C@H](O)[C@H]3O)cc(O)c12 ... 1.02
C[C@@H]1O[C@@H](OC[C@H]2OC(Oc3c(-c4ccc(O)c(O)c4)oc4cc(O)cc(O)c4c3=O)[C@H](O)[C@@H](O)[C@@H]2O)[C@H](O)[C@H](O)[C@H]1O (stereo not given in full) ... 1.04

In one line, give reported normalized growth of the entry NC(=NCCC[C@H](N)C(=O)O)N[N+](=O)[O-] .
1.04

In one line, give reported normalized growth of the entry CC(=O)Oc1ccc2c(c1C(C)C)CCC1C(C)(C)CCC[C@]21C (stereo not given in full) .
1.02

In one line, give reported normalized growth of the entry COC(=O)c1c(C)cc(O)cc1O .
1

* * *

Here the recorded normalized growth is given for each entry.
Assay: chemical genetic growth profiling, strain panel (AID 1159580)
Conditions: S. cerevisiae deletion strains, growth OD, locus YPL078C, strain atp4, stronger effect = lower value
Screen size: about 5,500 compounds; about 2,000 (36%) were called active. Not shown: some 18% with an inconclusive outcome. The list shows a part of the results.
Provide a numeric answer; units are not to be included.

// below: answered compounds
CCC1OC(=O)[C@H](C)C(=O)[C@H](C)[C@@H](OC2O[C@H](C)C[C@H](N(C)C)[C@H]2O)[C@](C)(OC)C2(CCCn3cnc(-c4cccnc4)c3)C[C@@H](C)C(=O)[C@H](C)[C@H]3N(C2)C(=O)O[C@]13C (stereo partly specified) ... 0.984
COc1cc(OC)c2ccc(=O)oc2c1 ... 0.957
NC(=O)CN1CCCC1=O ... 0.979
CN(C)c1ccc2nc3ccc(=[N+](C)C)cc-3sc2c1 ... 1.05
CNC(=O)Oc1cccc2c1OC(C)(C)O2 ... 0.988

In one line, give reported normalized growth of the entry CCCC(C)(COC(N)=O)COC(=O)NC(C)C (stereo unspecified) .
1.01

In one line, give reported normalized growth of the entry CCN(Cc1ccncc1)C(=O)C(CO)c1ccccc1 (stereo unspecified) .
1.02

* * *

Here the recorded normalized growth is given for each entry.
Assay: chemical genetic growth profiling, strain panel (AID 1159580)
Details: S. cerevisiae deletion strains, growth OD, locus YBR160W, strain CDC28, stronger effect = lower value
About 2,000 (36%) of roughly 5,500 compounds were called active. Another 18% or so got no clear call; they are omitted. Some of the results follow.
Provide a numeric answer; units are not to be included.

// below: answered molecules
COc1cc(Br)cc(C=Nc2ccc(Sc3ccccc3)nc2Sc2ccccc2)c1O ... 0.965
O=C1/C(=C/c2ccccn2)CCc2ccccc21 ... 0.957
CC(C)(C)NC(=S)N/N=C\c1ccccc1O ... 0.947
O=C1Nc2ccccc2/C1=C\c1ccc(Cl)cc1 ... 0.947
Cc1cc(Cl)ccc1NNC(=O)c1sccc1Br ... 0.918
COc1ccccc1NC(=S)N/N=C\c1ccccc1O ... 0.967
Cc1cc(Cl)ccc1NNC(=O)c1sccc1Cl ... 0.913
FC(F)(F)c1ccc(N2CCc3ccccc3C2)c(NC(=S)Nc2cc(Cl)cc(Cl)c2)c1 ... 0.989

In one line, give reported normalized growth of the entry CN(C)C=Nc1nnc(Sc2nc3c(Cl)cc(Cl)cc3s2)s1 .
0.977

In one line, give reported normalized growth of the entry O=C1Nc2ccccc2/C1=C\c1c(Cl)cccc1Cl .
0.972

* * *

Assay: chemical genetic growth profiling, strain panel (AID 1159580);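 also: tested at 20 µM; growth read once vehicle control cultures reached saturation at 30 °C; 1 = growth at the plate median or of vehicle wells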
Details: S. cerevisiae deletion strains, growth OD, locus YKL085W, strain MDH1
Among all 5,500 compounds or so, about 2,000 (36%) were called active. Inconclusive results (about 18%) are left out. Rule as the data show it: active = normalized growth mostly below about 0.91 (no sharp cut-off); inconclusive = no clear call, values can overlap the other calls; inactive = mostly above about 0.92. The list shows a part of the results.
Field 'call' accepts active, inactive

Observe how each entry below is paired with its result.
CC1CC[C@@]2(OC1)O[C@H]1CC3C4CC[C@@H]5C[C@@H](O)CC[C@]5(C)C4CC[C@]3(C)[C@H]1[C@@H]2C (stereo partly specified) ... inactive
C[C@@H]1CC[C@@]2(OC1)O[C@H]1CC3C4CC[C@H]5C[C@@H](O)CC[C@]5(C)C4CC[C@]3(C)[C@H]1[C@@H]2C (stereo partly specified) ... inactive
CC(C)(C)NCC(O)c1cc(Cl)c(N)c(Cl)c1 (stereo unspecified) ... inactive
C=C(C)[C@H]1COc2cc3oc(=O)ccc3cc2O1 ... inactive
CCCC(C)(COC(N)=O)COC(=O)NC(C)C (stereo unspecified) ... inactive
Cc1cc(C2CCCCC2)n(O)c(=O)c1 ... active
CN(C)c1nc(N)c(C(=O)N=C(N)N)nc1Cl ... inactive
CC(C)c1c(O)ccc2c1CCC1[C@@](C)(CO)CCC[C@]21C (stereo partly specified) ... inactive

Check the results log: what was the call for Oc1cc2c(cc1O)C1c3ccc(O)c(O)c3OCC1(O)C2 (stereo unspecified) ?
inactive

Check the results log: what was the call for NC(=O)NCCCC(N)C(=O)O (stereo unspecified) ?
inactive

Check the results log: what was the call for CC(C)(C)NCC(O)c1cc(O)cc(O)c1 (stereo unspecified) ?
inactive

Check the results log: what was the call for CCCCCCC(C)OC(=O)COc1ccc(Cl)cc1Cl (stereo unspecified) ?
inactive

Check the results log: what was the call for NC(CSCSCC(N)C(=O)O)C(=O)O (stereo unspecified) ?
inactive

* * *

Assay: chemical genetic growth profiling, strain panel (AID 1159580);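 also: tested at 20 µM; growth read once vehicle control cultures reached saturation at 30 °C; 1 = growth at the plate median or of vehicle wells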
Conditions: S. cerevisiae deletion strains, growth OD, locus YLR357W, strain rsc2
Hit rate of the full screen: of about 5,500 compounds, about 2,000 (36%) were called active. About 18% were inconclusive and are not listed. Cut-off read from the data, not from the text of the source: active = normalized growth mostly below about 0.91 (no sharp cut-off); inconclusive = no clear call, values can overlap the other calls; inactive = mostly above about 0.92. The list shows a part of the results.
Field 'call' accepts active, inactive

CO[C@@]1(NC(=O)C(C(=O)O)c2ccc(O)cc2)C(=O)N2C(C(=O)O)=C(CSc3nnnn3C)CO[C@@H]21 (stereo not given in full) ... inactive
NC(=O)CN1CCCC1=O ... inactive
COc1cc(OC)c2c(=O)c(O)c(-c3ccc(OC)c(OC)c3)oc2c1 ... active
COc1cc(OC)c2c(=O)c(OC)c(-c3ccc(OC)c(OC)c3)oc2c1 ... inactive

Now turn to the next molecule.
Check the results log: what was the call for COc1cc(O)c2c(=O)c(O)c(-c3ccc(O)c(O)c3)oc2c1 ?
active

* * *

Test: chemical genetic growth profiling, strain panel (AID 1159580);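 also: tested at 20 µM; growth read once vehicle control cultures reached saturation at 30 °C; 1 = growth at the plate median or of vehicle wells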
Settings: S. cerevisiae deletion strains, growth OD, locus YCL061C, strain MRC1 (second series), stronger effect = lower value
About 2,000 (36%) of roughly 5,500 compounds were called active. Not shown: some 18% with an inconclusive outcome. The list shows a part of the results.
Here the recorded normalized growth is given for each entry.
Provide a numeric answer; units are not to be included.

// below: answered compounds
N#CC(C#N)=Cc1cc(O)c(O)c(O)c1 ... 0.998
CC(C)(C)NCC(O)c1cc(O)cc(O)c1 (stereo not given) ... 0.988
NC(=Nc1ccccc1)NC(=O)c1nc(Cl)c(N)nc1N ... 1
CC(C)C[C@H](N)CSSC[C@@H](N)CC(C)C ... 1.01
COc1cc(=O)n(C)c2c(OCC(O)C(C)(C)O)cccc12 (stereo not given) ... 1.01
CC(C)CN(C)c1nc(N)c(C(=O)N=C(N)N)nc1Cl ... 0.963
CC(C)[C@@]1(NC(=O)[C@@H]2C[C@@H]3c4cccc5[nH]cc(c45)C[C@H]3N(C)C2)O[C@@]2(O)[C@@H]3CCCN3C(=O)[C@H](Cc3ccccc3)N2C1=O ... 0.974
CC(C)(C)c1cc(C=C(C#N)C#N)cc(C(C)(C)C)c1O ... 1.01
N#C/C(=C\c1ccc(O)c(O)c1)C(=O)NCCc1ccccc1 ... 0.987
NC(N)=NC(=O)c1nc(Cl)c(N)nc1N ... 0.995

In one line, give reported normalized growth of the entry CN1CC(C(=O)NC2(C)OC3(O)C4CCCN4C(=O)C(Cc4ccccc4)N3C2=O)CC2c3cccc4[nH]cc(c34)CC21 (stereo not given) .
0.992

In one line, give reported normalized growth of the entry O=S(=O)(c1cccc2c(I)cccc12)N1CCCNCC1 .
0.984

In one line, give reported normalized growth of the entry CC1=NN=C(c2ccc(N)cc2)c2cc3c(cc2C1)OCO3 .
0.991

In one line, give reported normalized growth of the entry S=C=Nc1cccc(C2(N3CCCCC3)CCCCC2)c1 .
0.998

In one line, give reported normalized growth of the entry N#CC(C#N)=C(N)/C(C#N)=C/c1ccc(O)cc1 .
0.998
